Here, each record is paired with measured growth data.
system: E. coli TESEC Mtb DapB; experiment: growth (OD600 after 10 h); higher = more growth (less inhibition); details: arabinose induction (level): Low; compound 0.1 mM; raw OD600 reference: median of DMSO wells 0.227, cell-free background 0.041
Where a name gives a salt, the structure may show the parent alone.
ENDPOINT: growth

COMPOUND	SYSTEM UNDER TEST	DATA VALUE
c1ccc(CNc2ncnc3nc[nH]c23)cc1 [Aminopurine, 6-benzyl]	E. coli TESEC Mtb DapB	0.197
CCCNCC(O)COc1ccccc1C(=O)CCc1ccccc1 (centres undefined) [Propafenone hydrochloride]	E. coli TESEC Mtb DapB	0.185
CC(=O)N(CC(O)CO)c1c(I)c(C(=O)NCC(O)CO)c(I)c(C(=O)NCC(O)CO)c1I (centres undefined) [Iohexol]	E. coli TESEC Mtb DapB	0.201
CC(Oc1c(Cl)cccc1Cl)C1=NCCN1 (centres undefined) [Lofexidine]	E. coli TESEC Mtb DapB	0.206
O=C1NCCN1c1ncc([N+](=O)[O-])s1 [Niridazole]	E. coli TESEC Mtb DapB	0.177
O=C(NCCO[N+](=O)[O-])c1cccnc1 [Nicorandil]	E. coli TESEC Mtb DapB	0.209
S=c1[nH]cnc2nc[nH]c12 [Mercaptopurine]	E. coli TESEC Mtb DapB	0.211
CO[C@H]1/C=C/O[C@@]2(C)Oc3c(C)c(O)c4c(O)c(c(/C=N/N5CCN(C6CCCC6)CC5)c(O)c4c3C2=O)NC(=O)/C(C)=C\C=C\[C@H](C)[C@H](O)[C@@H](C)[C@@H](O)[C@@H](C)[C@H](OC(C)=O)[C@@H]1C [Rifapentine]	E. coli TESEC Mtb DapB	0.0512
CN(c1nccc(=O)[nH]1)C1CCN(c2nc3ccccc3n2Cc2ccc(F)cc2)CC1 [Mizolastine]	E. coli TESEC Mtb DapB	0.174

---

test system: E. coli TESEC Mtb Alr; assay: growth (OD600 after 10 h); higher = more growth (less inhibition); conditions: arabinose 10000000 nM; compound 0.1 mM; raw OD600 reference: median of DMSO wells 0.146, cell-free background 0.041
Where a name gives a salt, the structure may show the parent alone.
ENDPOINT: growth

                                    molecule  endpoint  data_value
 0              CN/C(=N\CCSCc1nc[nH]c1C)NC#N    growth       0.142
 1  O=C(O)COCCN1CCN(C(c2ccccc2)c2ccc(Cl)cc2)CC1 (stereo not drawn) [Cetirizine dihydrochloride]    growth        0.14
 2  OCCOCCN1CCN(C(c2ccccc2)c2ccc(Cl)cc2)CC1 (stereo not drawn) [Hydroxyzine dihydrochloride]    growth       0.121
 3  CC(=O)CC(c1ccc([N+](=O)[O-])cc1)c1c(O)c2ccccc2oc1=O (stereo not drawn)    growth       0.139
 4  Nc1nc(=O)c2c([nH]1)NC[C@@H](CNc1ccc(C(=O)N[C@@H](CCC(=O)O)C(=O)O)cc1)N2C=O [Folinic acid calcium salt]    growth       0.138
 5       CC(=O)CCCCn1c(=O)c2c(ncn2C)n(C)c1=O    growth       0.134
 6    COC(=O)Nc1nc2cc(C(=O)c3cccs3)ccc2[nH]1    growth       0.142
 7  Cc1ccc(-c2ncc(Cl)cc2-c2ccc(S(C)(=O)=O)cc2)cn1    growth       0.161
 8  O=C1CN(/N=C/c2ccc([N+](=O)[O-])o2)C(=O)N1    growth      0.0451
 9  COc1ccccc1N1CCN(CCCCNC(=O)c2ccc3ccccc3c2)CC1    growth       0.182
10  COC(=O)N/N=C/c1c[n+]([O-])c2ccccc2[n+]1[O-]    growth       0.142
11  O=C1c2ccccc2S(=O)(=O)N1CCCCN1CCN(c2ncccn2)CC1    growth       0.141
12              CNCCC=C1c2ccccc2C=Cc2ccccc21    growth       0.111

Hello, the source for this data is the supplement of paper PMC9262897, in case you need it.
